Molecular target: mouse ADAMTS7 (Mus musculus, UniProt Q68SA9, E373Q)
Construct: Full-length mouse Adamts7 1-1857 (Uniprot Q68SA9, WT or E373Q catalytic mutant); expressed in transfected cells; host or cells: Human Coronary Artery Smooth Muscle Cells (HCA-SMC, Lonza), adenovirus 50 MOI
Sequence (Q68SA9 221-1657 E373Q): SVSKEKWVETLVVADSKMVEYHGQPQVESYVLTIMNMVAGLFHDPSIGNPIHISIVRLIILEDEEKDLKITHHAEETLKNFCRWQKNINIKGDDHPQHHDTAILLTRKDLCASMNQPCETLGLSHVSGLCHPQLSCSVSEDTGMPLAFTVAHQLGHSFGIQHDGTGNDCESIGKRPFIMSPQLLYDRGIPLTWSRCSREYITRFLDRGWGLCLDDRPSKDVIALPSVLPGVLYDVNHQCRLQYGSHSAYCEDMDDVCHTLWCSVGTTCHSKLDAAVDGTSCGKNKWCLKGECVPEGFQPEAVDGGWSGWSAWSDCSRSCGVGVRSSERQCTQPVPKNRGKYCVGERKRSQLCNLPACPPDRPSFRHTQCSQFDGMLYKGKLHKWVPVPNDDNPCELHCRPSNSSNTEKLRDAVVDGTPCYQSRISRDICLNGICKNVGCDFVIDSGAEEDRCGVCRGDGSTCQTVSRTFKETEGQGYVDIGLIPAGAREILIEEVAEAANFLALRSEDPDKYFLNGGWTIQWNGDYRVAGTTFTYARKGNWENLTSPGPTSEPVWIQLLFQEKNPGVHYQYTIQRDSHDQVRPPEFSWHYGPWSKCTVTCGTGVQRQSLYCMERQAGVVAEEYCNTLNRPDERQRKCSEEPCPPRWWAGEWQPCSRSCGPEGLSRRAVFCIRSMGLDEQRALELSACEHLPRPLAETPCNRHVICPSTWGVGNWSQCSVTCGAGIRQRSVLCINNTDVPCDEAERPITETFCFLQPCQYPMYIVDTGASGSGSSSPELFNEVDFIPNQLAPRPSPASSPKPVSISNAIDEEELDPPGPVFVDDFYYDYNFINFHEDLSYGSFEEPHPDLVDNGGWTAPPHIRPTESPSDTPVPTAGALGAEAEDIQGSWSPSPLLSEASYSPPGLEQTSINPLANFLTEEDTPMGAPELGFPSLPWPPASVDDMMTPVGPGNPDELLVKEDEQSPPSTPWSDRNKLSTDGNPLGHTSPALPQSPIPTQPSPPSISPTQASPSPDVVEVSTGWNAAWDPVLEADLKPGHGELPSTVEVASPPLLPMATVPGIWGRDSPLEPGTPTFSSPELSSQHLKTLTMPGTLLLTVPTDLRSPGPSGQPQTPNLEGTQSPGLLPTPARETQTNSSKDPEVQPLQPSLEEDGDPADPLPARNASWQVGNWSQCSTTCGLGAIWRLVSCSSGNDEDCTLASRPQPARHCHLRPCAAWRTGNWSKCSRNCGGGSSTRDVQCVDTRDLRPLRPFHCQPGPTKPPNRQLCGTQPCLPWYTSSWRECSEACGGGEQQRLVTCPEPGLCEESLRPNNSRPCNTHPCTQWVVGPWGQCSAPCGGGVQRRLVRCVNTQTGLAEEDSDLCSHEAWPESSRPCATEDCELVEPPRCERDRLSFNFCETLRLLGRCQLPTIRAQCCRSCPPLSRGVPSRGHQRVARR
Experiment: TMT10 TAILS N-terminomics, SMC1 experiment (Ad-mADAMTS7 WT vs EQ vs Luc, technical replicates, trypsin digest)
Assay type: cell-based
Conditions: TAILS neo-N-terminal peptide abundance; log fold change, Ad-mADAMTS7 EQ over Luc
Square brackets hold non-standard residues; d marks the D form. Ends that are not written are not given here. pGlu = O=C1CC[C@@H](C(=O)O)N1
experimental-endpoint: logFC.mEQ.over.Luc

> print(dat)
                                   substance  result.number
 1  HSPG2_4133 (DGFKGDLCEHEENPCQLR; listed as Homo sapiens)          −0.14
 2  GSN_35 (SQAGAPQGR; listed as Homo sapiens)           0.05
 3  FLNA_612 (SVEGPSQAKIECDDKGDGSCDVR; listed as Homo sapiens)           0.19
 4  POSTN_807 (LLQGDTPVR; listed as Homo sapiens)          −0.07
 5  COL4A2_172 (YALPKEER; listed as Homo sapiens)           0.76
 6  PAPPA_41 (AAGPATCATR; listed as Homo sapiens)           0.35
 7  MAN2A1_51 (LQEKIDHLER; listed as Homo sapiens)           0.18
 8  HSPG2_3813 (SSGFIGCVR; listed as Homo sapiens)          −0.28
 9  IFI30_43 (YKTGNLYLR; listed as Homo sapiens)           0.00
10  HSPG2_3647 ([pGlu]GKVKAFAHLQVPER; listed as Homo sapiens)          −0.26
11  FN1_282 (GSGPFTDVR; listed as Homo sapiens)          −0.15
12  COL1A2_305 (LTGAKGAAGLPGVAGAPGLPGPR; listed as Homo sapiens)          −0.16
13  COL1A2_866 (LLGAPGILGLPGSR; listed as Homo sapiens)          −0.24
14  LTBP2_1602 (EAGVHFR; listed as Homo sapiens)           0.64
15  LOX_126 (QAGYSTSR; listed as Homo sapiens)           0.02
16  FN1_2143 (FEEHGFR; listed as Homo sapiens)          −0.13
17  LOXL2_38 ([code q]QPAPEYHQPQAPANVAKIQLR; not fully specified; listed as Homo sapiens)           0.11
18  ACTB_21 (FAGDDAPR; listed as Homo sapiens)          −0.08
19  LOX_123 (HWFQAGYSTSR; listed as Homo sapiens)          −0.22

Origin of the recorded values: patent US20240368668A1
